# Target Or Test System: FLAG-tagged human Ang2 (human) (UniProt O15123)
# Sequence (O15123 19-496): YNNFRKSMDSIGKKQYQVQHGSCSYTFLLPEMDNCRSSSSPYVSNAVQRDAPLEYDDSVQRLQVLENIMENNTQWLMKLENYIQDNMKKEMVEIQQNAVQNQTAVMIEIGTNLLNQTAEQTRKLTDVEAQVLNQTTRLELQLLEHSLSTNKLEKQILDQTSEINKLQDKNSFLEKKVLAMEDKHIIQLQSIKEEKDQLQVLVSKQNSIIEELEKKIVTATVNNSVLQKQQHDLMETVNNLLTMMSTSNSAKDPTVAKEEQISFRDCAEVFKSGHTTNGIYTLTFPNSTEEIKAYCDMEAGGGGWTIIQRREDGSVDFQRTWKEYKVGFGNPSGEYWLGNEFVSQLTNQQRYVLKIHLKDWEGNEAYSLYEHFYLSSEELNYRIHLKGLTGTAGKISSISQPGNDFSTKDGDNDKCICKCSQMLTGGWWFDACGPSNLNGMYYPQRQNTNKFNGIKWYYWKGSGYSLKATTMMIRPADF
# Experimental Details: competition ELISA: FLAG-hAng2 binding to coated hTie2-Fc
pIC50: −log10 of the molar value.
Experimental Readout: pIC50

# Binder, Experimental Readout, Observed Result
rows = [
    ("VHH 1D01 (VHH, not shown: small tags and cut ends) VHH: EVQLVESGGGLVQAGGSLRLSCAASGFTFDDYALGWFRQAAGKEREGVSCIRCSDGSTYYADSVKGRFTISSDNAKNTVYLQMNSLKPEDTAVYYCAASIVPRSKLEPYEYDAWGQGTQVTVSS", "pIC50", 8.18),
    ("VHH 00935 (VHH, not shown: small tags and cut ends) VHH: EVQLVESGGGLVQPGGSLRLSCAASGITLDDYAIGWFRQAPGKEREGVSAIRSSGGSTYYADSVKGRFTISSDNSKNTVYLQMNSLRPEDTAVYYCAAVPAGRLRYGEQWYPIYEYDAWGQGTLVTVSS", "pIC50", 10.17),
    ("VHH 00928 (VHH, not shown: small tags and cut ends) VHH: EVQLVESGGGLVQPGGSLRLSCAASGFALDYYAIGWFRQAPGKEREGVSCISSSGGITYYADSVKGRFTISRDNSKNTVYLQMNSLRPEDTAVYYCATDSGGYIDYDCSGLGYDYWGQGTLVTVSS", "pIC50", 9.66),
    ("VHH 00934 (VHH, not shown: small tags and cut ends) VHH: EVQLVESGGGLVQPGGSLRLSCAASGITLDDYAIGWFRQAPGKEREGVSAIRESGGSTYYADSVKGRFTISSDNSKNTVYLQMNSLRPEDTAVYYCAAVPAGRLRYGEQWYPIYEYDAWGQGTLVTVSS", "pIC50", 10.19),
    ("VHH 00039 (VHH, not shown: small tags and cut ends) VHH: EVQLVESGGGLVQPGGSLRLSCAASGFTFDDYALGWFRQAAGKEREGVSCIRCSDGSTYYADSVKGRFTISRDNSKNTVYLQMNSLRPEDTAVYYCAASIVPRSKLEPYEYDAWGQGTLVTVSS", "pIC50", 7.92),
    ("VHH 00044 (VHH, not shown: small tags and cut ends) VHH: EVQLVESGGGLVQPGGSLRLSCAASGFALDYYAIGWFRQAPGKEREGVSCISSSDGITYYVDSVKGRFTISRDNSKNTVYLQMNSLRPEDTAVYYCATDSGGYIDYDCMGLGYDYWGQGTLVTVSS", "pIC50", 10.16),
    ("VHH 00921 (VHH, not shown: small tags and cut ends) VHH: EVQLVESGGGLVQPGGSLRLSCAASGFTFDDYALGWFRQAPGKEREGVSCIRCSGGSTYYADSVKGRFTISSDNSKNTVYLQMNSLRPEDTAVYYCAASIVPRSKLEPYEYDAWGQGTLVTVSS", "pIC50", 7.52),
    ("VHH 00923 (VHH, not shown: small tags and cut ends) VHH: DVQLVESGGGLVQPGGSLRLSCAASGFTLDDYAIGWFRQAPGKEREGVSAIRDNGGSTYYADSVKGRFTISSDNSKNTVYLQMNSLRPEDTAVYYCAAVPAGRLRFGEQWYPLYEYDAWGQGTLVTVSS", "pIC50", 9.15),
    ("VHH 00938 (VHH, not shown: small tags and cut ends) VHH: EVQLVESGGGLVQPGGSLRLSCAVSGITLDDYAIGWFRQAPGKEREGVSAIRSSGGSTYYADSVKGRFTISSDNSKNTVYLQMNSLRPEDTAVYYCAAVPAGRLRYGEQWYPIYEYDAWGQGTLVTVSS", "pIC50", 10.30),
]
